Tested on: K-562 leukemia
Test: NCI-60 one-dose screen, 48 h
Applied conditions: 10 µM unless noted
About 83,000 compounds went through this panel and 20% of them were active in at least one assay; those are over-represented in the sample as a whole. The source made the active and inactive calls. Rule for the calls: active = growth percent below 10; inactive = the rest.
A correct response names exactly one class from active, inactive

Can you look up the reported call for O=C(C(=O)N1CCCC1)c1cn(CCCn2cc(C(=O)C(=O)N3CCCC3)c3cc(Br)ccc32)c2ccc(Br)cc12 for me?
inactive

Do the same for C=CCOC(=O)C1=C(C)NC2=C(C(=O)CC(C)(C)C2)C1c1ccc(OC)cc1 (stereo unspecified) please
inactive

Do the same for ClCc1c(Cl)c(Cl)c(Cl)c(CCl)c1Cl please
active

Do the same for Cc1cc(N)cc(C)c1-c1c(Br)cc(N)cc1Br please
active

Do the same for COc1ccc(/C=C/c2nc3ccccc3c(=O)n2-c2ccc(C#Cc3ccc(C(C)(C)C)cc3)cc2C)c(OC)c1 please
inactive

Do the same for CC(=O)c1ccc(N2C(=O)c3ccc(Oc4ccccc4)cc3C2=O)cc1 please
inactive

Do the same for Cc1ccc(NC(=O)c2cc(NCc3cc(O)ccc3O)ccc2O)cc1 please
inactive

Do the same for N#Cc1ccc(-c2ccc(-c3cccs3)o2)cc1F please
inactive

Do the same for CN(C)c1nc(-c2ccco2)n2nc(-c3ccc(Cl)cc3)cc2n1 please
inactive

Do the same for C=C(C)[C@@H]1CC[C@]2(C(=O)NC(COC(=O)C(Cl)Cl)(COC(=O)C(Cl)Cl)COC(=O)C(Cl)Cl)CC[C@]3(C)[C@H](CC[C@@H]4[C@@]5(C)CC[C@H](OC(C)=O)C(C)(C)[C@@H]5CC[C@]43C)[C@@H]12 please
inactive

Do the same for COc1ccc(-c2ccc(-c3ccc(C(=N)N)s3)s2)cc1 please
active

Do the same for O=C1NN(C(=O)c2ccccc2)C(c2ccc(Cl)c(Cl)c2)=C/C1=C\c1ccccc1[N+](=O)[O-] please
inactive

Do the same for O=C(N/N=C\c1cc(Br)ccc1O)c1ccncc1 please
inactive

Do the same for C[C@@H]1CC2C3CCC4=CC(=O)C=C[C@]4(C)[C@@]3(Cl)[C@@H](O)C[C@]2(C)[C@@]1(OC(=O)c1ccco1)C(=O)CCl (stereo partly specified) please
inactive

Do the same for c1coc(CNc2c3ccccc3nc3ccccc23)c1 please
inactive

Do the same for N=c1nc(N2CCCCC2)cc(N)n1O please
inactive

Do the same for Cc1ccc(OC2=C(C#N)C(=N)N3C(=NN2)Sc2c(C)ccc(C)c23)cc1 please
inactive

Do the same for ClC1(Cl)C2CCCCCCC21 (stereo unspecified) please
inactive

Do the same for CCN(CC)CCNC(=O)n1cc(-c2ccncc2)c(-c2ccc(Cl)c(OC)c2)n1 please
inactive

Do the same for COc1ccc(C2=NNC(c3ccc(Oc4nc5c(c(=O)n(C)c(=O)n5C)n4C)c(OC)c3)C2)cc1 (stereo unspecified) please
inactive

Do the same for Cc1ccc(C)c(NC(=O)c2sc3c(=O)[nH]cnc3c2C)c1 please
inactive

Do the same for COc1cc([N+](=O)[O-])cc(OC)c1OC please
inactive

Do the same for C(=Nc1ccc(-c2ccc(N=Cc3ccccc3)cc2)cc1)c1ccccc1 please
inactive

Do the same for N/C(=N\OC(=O)c1ccccc1)C(Cc1ccccc1)C(=O)NOC(=O)c1ccccc1 (stereo unspecified) please
active

Do the same for Nc1c(C(=O)Nc2ccccc2)sc2nc3c(cc12)C(=O)CCC3 please
inactive

Do the same for CCC(=O)OCc1ccc(OC)cc1 please
inactive

Do the same for NC(=O)N/N=C\c1ccc([N+](=O)[O-])o1 please
inactive

Do the same for CC(=O)CC(c1ccc([N+](=O)[O-])cc1)c1c(O)c2ccccc2oc1=O (stereo unspecified) please
inactive

Do the same for COc1ccccc1/C=N\Nc1ccc([N+](=O)[O-])cn1 please
inactive

Do the same for COc1ccc(/C(C)=N/NC(=O)c2ccc(S(C)(=O)=O)cc2)cc1OC please
inactive

Do the same for COc1cc(/C=C/c2cc(/C=C/c3ccc(O)c(OC)c3)n(C(=O)c3ccccc3Br)n2)ccc1O please
active

Do the same for C=CCOc1ccc2c(C)cc(=O)oc2c1 please
inactive

Do the same for CNC(=O)c1c(NC(=O)c2ccc(C(C)C)cc2)sc2c1CCC(=O)C2 please
active

Do the same for COc1ccc(Nc2nc(N)nc3c(=O)[nH]ccc23)cc1 please
inactive

Do the same for COc1ccc(-n2nc(C(=O)Nc3ccc(F)cc3)nc2-c2cc(OC)c(OC)c(OC)c2)cc1 please
inactive

Do the same for CC1CCCN(CCCCOc2ccc(-c3ccc(C#N)cc3)cc2)C1 (stereo unspecified) please
inactive
